I'd appreciate it if you could supply Minimum effective hypoglycemic dose values for the items below.
# Organism: Mus musculus
# ASSAY EXPLANATION: Hypoglycemic activity causing more than a 20% blood glucose decrease in fasting mice
# Assay type: functional
Just so you know, I need the unit written after the number.

stdin: Complete the entry with Minimum effective hypoglycemic dose for CC(C)N(C(=O)[C@H](Cc1ccccc1)NC(=O)[C@H]1CC[C@H](C(C)C)CC1)C(C)C
stdout: 100 mg/kg

stdin: Provide only the value of recorded Minimum effective hypoglycemic dose for CC[C@H]1CC[C@H](C(=O)N[C@H](Cc2ccccc2)C(=O)O)CC1
stdout: 25 mg/kg

stdin: Tell me measured Minimum effective hypoglycemic dose for CC(C)[C@H]1CC[C@H](C(=O)N[C@@H](Cc2ccccc2)C(=O)OCc2ccccc2)CC1 please.
stdout: 25 mg/kg

stdin: Given the compound CC(C)(C)[C@H]1CC[C@H](C(=O)N[C@H](Cc2ccccc2)C(=O)O)CC1 , write its reported Minimum effective hypoglycemic dose.
stdout: 6.3 mg/kg

stdin: Please give the documented Minimum effective hypoglycemic dose of CCCC[C@H]1CC[C@H](C(=O)N[C@H](Cc2ccccc2)C(=O)O)CC1
stdout: 25 mg/kg

stdin: Please indicate Minimum effective hypoglycemic dose recorded for CCC[C@H]1CC[C@H](C(=O)N[C@H](Cc2ccccc2)C(=O)O)CC1
stdout: 25 mg/kg

stdin: Using known records, supply Minimum effective hypoglycemic dose for C=C(C)[C@@H]1CC=C(C(=O)N[C@H](Cc2ccccc2)C(=O)O)CC1
stdout: 25 mg/kg

stdin: Write down Minimum effective hypoglycemic dose measured for item CC(C)c1ccc(C(=O)N[C@H](Cc2ccccc2)C(=O)O)cc1
stdout: 25 mg/kg

stdin: Name the recorded Minimum effective hypoglycemic dose of the compound listed here: O=C(N[C@H](Cc1ccccc1)C(=O)O)C1CCCCC1
stdout: 100 mg/kg

stdin: Give the measured Minimum effective hypoglycemic dose for CCCCNC(=O)NS(=O)(=O)c1ccc(C)cc1 [TOLBUTAMIDE]
stdout: 25 mg/kg

====

# Species: Mus musculus
# ASSAY EXPLANATION: Hypoglycemic activity causing more than a 20% blood glucose decrease in fasting mice
# Assay type: functional
ASSAY ENDPOINT: Minimum effective hypoglycemic dose
Reply with the number and its unit after it.

stdin: Please give measured Minimum effective hypoglycemic dose of the following entry: C[C@H]1CC[C@H](C(=O)N[C@H](Cc2ccccc2)C(=O)O)CC1
stdout: 25 mg/kg

stdin: Provide one value: measured Minimum effective hypoglycemic dose of CC(C)[C@H]1CC[C@H](C(=O)N[C@@H](Cc2ccccc2)C(=O)O)CC1 [(S)-NATEGLINIDE]
stdout: 100 mg/kg

stdin: Give the measured Minimum effective hypoglycemic dose for COC(=O)[C@H](Cc1ccccc1)NC(=O)[C@H]1CC[C@H](C(C)C)CC1
stdout: 3.1 mg/kg

stdin: Read the entry CC(C)[C@H]1CC[C@H](C(=O)N[C@H](Cc2ccccc2)C(=O)O)CC1 [NATEGLINIDE] and write its reported Minimum effective hypoglycemic dose.
stdout: 1.6 mg/kg

stdin: For O=C(N[C@H](Cc1ccccc1)C(=O)O)C1CCCC1 , write its Minimum effective hypoglycemic dose.
stdout: 50 mg/kg
